- Test system: blackgrass (Alopecurus myosuroides)
- test-description: Test A postemergence
- Assay type: in vivo
- cond: Alopecurus myosuroides, post-emergence, 240 h, 125 g ai/ha, Postemergence; visual injury after approximately 10 d; 0 to 100 scale where 0 is no effect and 100 is complete control; read-out: Plant response rating, Blackgrass
experimental-endpoint: pest or weed control at 125 g/ha
Enter the number, and then the unit.

molecule | pest or weed control at 125 g/ha
CSc1ccccc1NC(=O)[C@H]1C(=O)N(C)C[C@@H]1c1ccc(C)c(F)c1 | 30%
CC(C)COc1cccc([C@H]2CN(C)C(=O)[C@@H]2C(=O)Nc2cccc(F)c2F)c1 | 30%
Cc1cc([C@H]2CN(C)C(=O)[C@@H]2C(=O)Nc2ccccc2C(F)(F)F)ccc1Cl | 40%
CN1CC[C@H](c2ccc(OC(F)(F)F)cc2)[C@@H](C(=O)Nc2ccc(F)c(F)c2F)C1=O | 0%
CN1CC[C@H](c2ccc(OC(F)(F)F)cc2)[C@@H](C(=O)Nc2cccc(Cl)c2F)C1=O | 0%
CCOc1cccc([C@H]2CN(C)C(=O)[C@@H]2C(=O)Nc2ccccc2F)c1 | 0%
CN1C[C@H](c2ccc(C(F)(F)F)cc2)[C@@H](C(=O)Nc2cccc(F)c2Br)C1=O | 30%
CC(C)COc1cccc([C@H]2CN(C)C(=O)[C@@H]2C(=O)Nc2ccccc2F)c1 | 30%

Input O=C(Nc1ccccc1F)[C@H]1C(=S)NC[C@@H]1c1ccc(Cl)cc1 (racemic) . Output pest or weed control at 125 g/ha: 0%

Input `CCc1cc(CC)cc([C@H]2CNC(=O)[C@@H]2C(=O)Nc2ccccc2C(F)(F)F)c1` . Output pest or weed control at 125 g/ha: 0%

Input `CN1C[C@H](c2cc(F)cc(F)c2)[C@@H](C(=O)Nc2ccc(O)cc2F)C1=O` . Output pest or weed control at 125 g/ha: 0%

Input `O=C(Nc1cccc(F)c1F)[C@H]1C(=O)N(C2CC2)CC[C@@H]1c1cccc(C(F)(F)F)c1` . Output pest or weed control at 125 g/ha: 0%

Input `COc1ccc([C@H]2CN(C)C(=O)[C@@H]2C(=O)Nc2ccccc2F)cc1F` . Output pest or weed control at 125 g/ha: 0%

Input `Cc1cc([C@H]2CN(C)C(=O)[C@@H]2C(=O)Nc2cccc(F)c2F)ccc1Cl` . Output pest or weed control at 125 g/ha: 40%

Input C=CCOc1cccc(C2CN(C)C(=O)C2C(=O)Nc2cccc(F)c2F)c1 (stereo not shown) . Output pest or weed control at 125 g/ha: 20%

Input `COc1cc(OC)cc([C@H]2CN(C)C(=O)[C@@H]2C(=O)Nc2ccccc2F)c1` . Output pest or weed control at 125 g/ha: 0%

---

- Test system: corn (Zea mays)
- test-description: Test G Post-Emergence Protocol
- Assay type: in vivo
- cond: Zea mays, post-emergence, 312 h, 62.5 g ai/ha, evaluated after 13 days, read-out: Corn damage rating (100=total damage to plant; 0=no damage to plant)
experimental-endpoint: plant injury at 62.5 g/ha

Worked examples, 3 molecules total:
molecule | target-or-system | plant injury at 62.5 g/ha
CN1C[C@H](c2ccc(C(F)(F)F)cc2)[C@@H](C(=O)Nc2ccccc2C(C)(C)C)C1=O (racemic) | corn (Zea mays) | 0%
CN1C[C@@H](c2ccc(C(F)(F)F)cc2)[C@H](C(=O)Nc2c[nH]nc2Cl)C1=O (racemic) | corn (Zea mays) | 0%
Cc1c(NC(=O)[C@H]2C(=O)N(C)C[C@@H]2c2ccc(C(F)(F)F)cc2)cccc1C(F)(F)F (racemic) | corn (Zea mays) | 0%

Note: attention shifts to another entry.
Input Cc1c(C#N)cccc1NC(=O)[C@H]1C(=O)N(C)C[C@@H]1c1ccc(C(F)(F)F)cc1 (racemic) . Output plant injury at 62.5 g/ha: 10%
